Measured On: L-lactate dehydrogenase B chain (Mus musculus)
Sequence (P16125 whole entry): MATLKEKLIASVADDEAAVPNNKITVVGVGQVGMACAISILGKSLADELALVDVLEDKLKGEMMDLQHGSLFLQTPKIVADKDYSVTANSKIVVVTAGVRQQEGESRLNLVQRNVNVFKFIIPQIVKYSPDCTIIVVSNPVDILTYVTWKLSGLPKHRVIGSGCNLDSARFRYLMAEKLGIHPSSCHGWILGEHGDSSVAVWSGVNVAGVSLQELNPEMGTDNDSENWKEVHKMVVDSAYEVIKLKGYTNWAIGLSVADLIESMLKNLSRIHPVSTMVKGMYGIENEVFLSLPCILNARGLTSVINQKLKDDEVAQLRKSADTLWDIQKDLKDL
Measured Attribute: Ki (nM)
Report only the number, with the unit nM understood.

The molecule `Cc1cc2c(C(C)C)c(O)c(O)c(C=O)c2c(O)c1-c1c(C)cc2c(C(C)C)c(O)c(O)c(C=O)c2c1O` , tested on L-lactate dehydrogenase B chain (Mus musculus), showed Ki of 1400

* * *

Measured Attribute: pKi
// returns pKi (minus log10 of molar concentration), number only

The compound `O=c1cc2c(=O)oc3cc(O)c(O)oc3c2c(O)c1O` , tested on L-lactate dehydrogenase A chain (Homo sapiens, UniProt P00338), showed pKi of 5.26

* * *

Measured On: L-lactate dehydrogenase A chain (Homo sapiens, UniProt P00338)
Test: Inhibition of LDHA in human Med1 cells using pyruvate as substrate incubated 10 mins by spectrophotometric analysis
Measured Attribute: IC50

Entry `O=c1cc2c(nn1CC1CCN(C3=NS(=O)(=O)c4ccccc43)CC1)CCC2` , IC50 reported as 12 nM
